The origin of these recorded values is patent US20200277377A1.

# assayed-system: T1, human CTLA-4.ECD-6×His (human, UniProt P16410 36-161)
# T1 construct: extracellular domain; also called WBP316.hCTLA-4.ECD-6×His; hCTLA4-His (WT)
# T1 sequence: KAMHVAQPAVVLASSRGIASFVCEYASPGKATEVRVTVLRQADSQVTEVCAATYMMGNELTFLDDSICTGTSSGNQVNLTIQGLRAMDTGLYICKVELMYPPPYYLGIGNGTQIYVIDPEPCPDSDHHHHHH
# run-description: SPR, antibody captured on anti-human Fc, CTLA-4 ECD as analyte, 1:1 fit
# maps each entry to its koff
Record the value in s⁻¹, omitting the unit from your answer.

Solved entries (count: 3):
binder	koff (s⁻¹)
W3162-1.146.19 xAb.IgG1 (antibody, V domains shown, Chimeric: rat variable regions fused with constant region of human antibody (label xAb.IgG1)) VH: EVQLQESGPGLVKPSQSLSLTCSVTYHTITSGYDWTWIRKFPGNQMEWMGYISYSGNTNYNPSLKSRISITRDTSKNQFFLHLNSVTSEDTATYYCASMMVPHYYVMDAWGQGASVTVSS VL: DVVLTQTPPTSSATIGQSVSISCRSSQSLLNSDGNTYLYWYLQRPSQSPQLLIYLVSKLGSGVPNRFSGSGSGTDFTLKISGVEAEDLGLYYCVQGTHDPWTFGGGTKLELK	0.000148
W3162-1.101.2 xAb.IgG1 (antibody, V domains shown, Chimeric: rat variable regions fused with constant region of human antibody (label xAb.IgG1)) VH: EEQLVESGGGLVQPGKSLKLSCSASGFTFRSSAMHWIRQPPGKGLDWVAFISSGGDTAYADAVKGRFIVSRDNAENTLFLQLNSLKSEDTAIYYCVRMERIPTWGQGVMVTVSS VL: DIVLTQSPVLAVSLGQRATISCRASQSVSISSINLIHWYQQRPGQQPKLLIYRTSNLASGIPARFSGSGSGTDFTLSIDPVQADDVADYYCQQSRESPLTFGSGTKLEIK	6.97e-05
W3162-1.154.8 xAb.IgG1 (antibody, V domains shown, Chimeric: rat variable regions fused with constant region of human antibody (label xAb.IgG1)) VH: EVQLQQSGPEAGRPGSSVKISCKASGYTFTNYFMNWVKQSPGQGLEWIGRVDPENGRADYAEKFKKKATLTADTTSNTAYIHLSSLTSEDTATYFCARRAMDNYGFAYWGQGTLVTVSS VL: EIMLTQSPTIMAASLGEKITITCSANSSLSYMYWFQQKSGASPKLWVHGTSNLASGVPDRFSGSGSGTSYYLTINTMEAEDAATYFCHHWSNTQWTFGGGTKLELK	0.000125

Turning to the following binder.
Problem: Entry W3162-1.145.10 xAb.IgG1 (antibody, V domains shown, Chimeric: rat variable regions fused with constant region of human antibody (label xAb.IgG1)) VH: EVQLVESGGGLVQPGRSLKLSCAASDLTFSNYDMAWVRQTPTKGLEWVASISPNGGNTYYRDSVKGRFTVSRDNAKNSLYLQMDSLRSEDTATYYCARHLWFAYWGQGTLVTVSS VL: DIQMTQSPSSMSASLGDRVTISCQASQDIGSNLIWFQQKPGKSPRPMIYYATHLADGVPSRFSGSRSGSDYSLTISSLESEDVADYHCLQYKQYPRTFGGGTKLELK has what koff?
Result: 0.0165
